# Target Entity: KRAS G12C (Homo sapiens, UniProt P01116, G12C)
# Construct: HIS-KRAS (G12C, aa 2-185, Sino biological)
# Sequence (P01116 2-185 isoform P01116-2 G12C): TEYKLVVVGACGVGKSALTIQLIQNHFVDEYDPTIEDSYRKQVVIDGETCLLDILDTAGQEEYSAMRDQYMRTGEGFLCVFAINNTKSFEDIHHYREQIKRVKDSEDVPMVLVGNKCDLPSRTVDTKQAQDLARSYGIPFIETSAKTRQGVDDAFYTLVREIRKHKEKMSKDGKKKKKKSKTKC
# Procedure Details: SOS1 catalyzed nucleotide exchange assay (TR-FRET)
# Run Conditions: GDP-loaded HIS-KRAS(G12C), 1 hour pre-incubation with compound
Threshold 30 nM: IC50 strictly smaller gives y, otherwise n.

Worked examples follow.
[
  {
    "Compound": "C=CC(=O)N1CCN(c2nc(OCC3(CN(C)C)CC3)nc3c2CCN(c2cccc4ccn(C)c(=O)c24)C3)CC1CC#N (centres unmarked)",
    "Target Entity": "KRAS G12C (Homo sapiens, UniProt P01116, G12C)",
    "Category Label": "n"
  },
  {
    "Compound": "C=CC(=O)N1CCN(c2nc(OC[C@@H]3CC[C@H](N(C)C)C3)nc3c2CCN(c2cccc4cccc(C)c24)C3)CC1CC#N (some centres unmarked)",
    "Target Entity": "KRAS G12C (Homo sapiens, UniProt P01116, G12C)",
    "Category Label": "y"
  },
  {
    "Compound": "Cc1cccc2cccc(N3CCc4c(nc(OCC5(CN(C)C)CC5)nc4N4CCN(C(=O)/C=C/CO)C(CC#N)C4)C3)c12 (centres unmarked)",
    "Target Entity": "KRAS G12C (Homo sapiens, UniProt P01116, G12C)",
    "Category Label": "y"
  },
  {
    "Compound": "C=CC(=O)N1CCN(c2nc(OCC3(CN4CC(F)C4)CC3)nc3c2CCN(c2cccc4cccc(C)c24)C3)CC1CC#N (centres unmarked)",
    "Target Entity": "KRAS G12C (Homo sapiens, UniProt P01116, G12C)",
    "Category Label": "y"
  },
  {
    "Compound": "C=CC(=O)N1CCN(c2nc(OCC3(CN(C)C)CC3)nc3c2CCN(c2cccc4c2OCC4)C3)CC1CC#N (centres unmarked)",
    "Target Entity": "KRAS G12C (Homo sapiens, UniProt P01116, G12C)",
    "Category Label": "n"
  }
]

Field: below-cutoff. Rule: recorded IC50 strictly less than 30 nM. Subject: C=CC(=O)N1CCN(c2nc(OCC3CCC(N(C)C)C3)nc3c2CCN(c2cccc4ccccc24)C3)CC1CC#N (centres unmarked)
n

Field: below-cutoff. Rule: recorded IC50 strictly less than 30 nM. Subject: C=CC(=O)N1CCN(c2nc(OCC3CCCC3N(C)C)nc3c2CCN(c2cccc(F)c2C(F)(F)F)C3)CC1CC#N (centres unmarked)
n

----------
# Tested on: Phospho-ERK1/2(THR202/TYR204) in NCI-H358 cells express KRAS G12C
# Procedure Details: Phospho-ERK1/2(THR202/TYR204) HTRF assay
# Format: cell-based
# Run Conditions: Homo sapiens; NCI-H358, 2 hours incubation; read-out: p-ERK inhibition in NCI-H358 IC50
Reported Property: IC50 (nM)
Quick note: give the figure in nM, leave out the unit.

Please review the entries below; each comes with its answer.
[
  {
    "Molecule": "C=CC(=O)N1CCN(c2nc(O[C@H]3CCCC[C@@H]3N(C)C)nc3c2CCN(c2cccc4ccccc24)C3)CC1CC#N (stereo partly shown)",
    "Readout Value": 7120
  },
  {
    "Molecule": "C=CC(=O)N1CCN(c2nc(OCC3(CN4CCCC4)CC3)nc3c2CCN(c2cccc(Cl)c2Cl)C3)CC1CC#N (stereo not shown)",
    "Readout Value": 85.3
  },
  {
    "Molecule": "C=C(F)C(=O)N1CCN(c2nc(OCC3(CN4CCN(C)CC4)CC3)nc3c2CCN(c2cccc4cccc(C)c24)C3)CC1CC#N (stereo not shown)",
    "Readout Value": 505
  },
  {
    "Molecule": "C=CC(=O)N1CCN(c2nc(OCC3CCCC3N(C)C)nc3c2CCN(c2cccc4ccccc24)C3)CC1CC#N (stereo not shown)",
    "Readout Value": 234
  }
]

What does the data say about its IC50? Entry: C=CC(=O)N1CCN(c2nc(OCC3(CN(C)C)CC3)nc3c2CCN(c2cccc4cccc(Cl)c24)C3)CC1CC#N (stereo not shown)
14.7

What does the data say about its IC50? Entry: C=CC(=O)N1CCN(c2nc(OC3CCCC3N3CCN(C)CC3)nc3c2CCN(c2cccc4ccccc24)C3)CC1CC#N (stereo not shown)
7060

What does the data say about its IC50? Entry: C=CC(=O)N1CCN(c2nc(OCC3(CN4CCCC4)CCC3)nc3c2CCN(c2cccc4ccccc24)C3)CC1CC#N (stereo not shown)
220

What does the data say about its IC50? Entry: C=C(F)C(=O)N1CCN(c2nc(OCC3(CN4CCCC4)CC3)nc3c2CCN(c2cccc4cccc(C)c24)C3)CC1CC#N (stereo not shown)
215

What does the data say about its IC50? Entry: C=CC(=O)N1CCN(c2nc(OCC3CCC(N4CCCC4)C3)nc3c2CCN(c2cccc4ccccc24)C3)CC1CC#N (stereo not shown)
302

What does the data say about its IC50? Entry: C=CC(=O)N1CCN(c2nc(OCC3(CN4CC[C@@H](F)C4)CC3)nc3c2CCN(c2cccc4cccc(C)c24)C3)CC1CC#N (stereo partly shown)
38.4

What does the data say about its IC50? Entry: C=CC(=O)N1CCN(c2nc(OC[C@@H]3CC[C@H](N(C)C)C3)nc3c2CCN(c2cccc4cccc(C)c24)C3)CC1CC#N (stereo partly shown)
96.6

What does the data say about its IC50? Entry: C=C(F)C(=O)N1CCN(c2nc(OCC3(CN4CCC4)CC3)nc3c2CCN(c2cccc4cccc(C)c24)C3)CC1CC#N (stereo not shown)
963

What does the data say about its IC50? Entry: C=C(F)C(=O)N1CCN(c2nc(OCC3(CN(CC)CC)CC3)nc3c2CCN(c2cccc4cccc(C)c24)C3)CC1CC#N (stereo not shown)
354

What does the data say about its IC50? Entry: C=C(F)C(=O)N1CCN(c2nc(OCC3(CN(C)C)CC3)nc3c2CCN(c2cccc4cccc(C)c24)C3)CC1CC#N (stereo not shown)
208

What does the data say about its IC50? Entry: C=CC(=O)N1CCN(c2nc(O[C@H]3CC[C@H](N(C)C)CC3)nc3c2CCN(c2cccc4ccccc24)C3)CC1CC#N (stereo partly shown)
3200

The reported numbers originate from patent US20210040089A1.
